# test.system: UniProtKB P11511
# run.description: Inhibition of aromatase (unknown origin)
pIC50: −log10 of the molar value.
quantity: pIC50

{"structure": "COc1cc(O)c([C@@H]2C[C@@H](c3ccccc3)Oc3c(C=O)c(O)cc(O)c32)c(O)c1C(=O)/C=C/c1ccccc1", "test.system": "UniProtKB P11511", "quantity": "pIC50", "recorded.result": 5.48}

(1) COc1cc(O)c([C@H]2C[C@@H](c3ccccc3)Oc3c(C=O)c(O)cc(O)c32)c(O)c1C(=O)/C=C/c1ccccc1
(2) O=C1C[C@@H](c2ccccc2)Oc2cc(O)cc(O)c21
**Q:** Hi team, can someone confirm which has the larger pIC50: 1 or 2 ? Thanks. Response format: the label of the selected entry.
**A:** 2

----------
# test.system: Aromatase (Homo sapiens)
# Sequence (P11511 whole entry): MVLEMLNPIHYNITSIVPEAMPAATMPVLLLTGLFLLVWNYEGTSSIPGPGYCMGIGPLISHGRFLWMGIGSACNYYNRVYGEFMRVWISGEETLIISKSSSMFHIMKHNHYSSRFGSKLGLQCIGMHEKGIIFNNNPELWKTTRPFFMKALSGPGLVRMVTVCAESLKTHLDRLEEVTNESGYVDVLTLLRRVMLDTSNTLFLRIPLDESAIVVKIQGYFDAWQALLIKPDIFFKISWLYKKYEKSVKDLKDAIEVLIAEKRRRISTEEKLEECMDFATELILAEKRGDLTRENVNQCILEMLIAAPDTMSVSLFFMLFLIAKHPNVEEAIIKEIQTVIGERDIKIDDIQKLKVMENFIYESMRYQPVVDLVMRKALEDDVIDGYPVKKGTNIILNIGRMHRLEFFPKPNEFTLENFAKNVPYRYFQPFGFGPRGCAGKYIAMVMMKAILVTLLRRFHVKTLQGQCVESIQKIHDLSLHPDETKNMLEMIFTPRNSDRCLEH
# run.description: Inhibition of human recombinant aromatase expressed in baculovirus infected insect cells using O-benzylfluorescein benzyl ester as substrate after 30 mins
quantity: IC50 (nM)

Example compounds with recorded IC50:
{"structure": "COc1cc(O)c(C=O)c2c1[C@H](O)C[C@@H](c1ccccc1)O2", "test.system": "Aromatase (Homo sapiens)", "quantity": "IC50", "unit.label": "nM", "recorded.result": 40}
{"structure": "COc1c(C)c(OC)c2c(c1C=O)O[C@H](c1ccccc1)C[C@H]2O", "test.system": "Aromatase (Homo sapiens)", "quantity": "IC50", "unit.label": "nM", "recorded.result": 1010}
{"structure": "COc1cc(O)c(C=O)c2c1[C@H](OC)C[C@@H](c1ccccc1)O2", "test.system": "Aromatase (Homo sapiens)", "quantity": "IC50", "unit.label": "nM", "recorded.result": 90}
{"structure": "COc1c(C)c(OC)c2c(c1C)O[C@H](c1ccccc1)C[C@H]2O", "test.system": "Aromatase (Homo sapiens)", "quantity": "IC50", "unit.label": "nM", "recorded.result": 10700}
{"structure": "COc1c(C)c(O)c(C=O)c2c1[C@H](O)C[C@@H](c1ccccc1)O2", "test.system": "Aromatase (Homo sapiens)", "quantity": "IC50", "unit.label": "nM", "recorded.result": 80}

(A) COc1cc(O)c2c(c1C)O[C@H](c1ccccc1)CC2=O
(B) COc1c(C)c(O)c(C=O)c2c1[C@H](OC)C[C@@H](c1ccccc1)O2
**Q:** Two entries are listed, A and B . Which one carries the higher IC50? Return value: the label identifying the chosen record.
**A:** A
(A: 600 nM, B: 150 nM)

----------
# Tested on: A549
# run.description: Cytotoxicity against human A549 cells by MTT assay
# Type: functional, cell-based
# setup.conditions: a549

{"structure": "COc1c(C)c(O)c(C=O)c2c1[C@H](O)C[C@@H](c1ccccc1)O2", "IC50": "Not Active"}
{"structure": "COc1cc(O)c(C=O)c2c1[C@H](OC)C[C@@H](c1ccccc1)O2", "IC50": "Not Active"}
{"structure": "COc1c(C)c(OC)c2c(c1C)O[C@H](c1ccccc1)C[C@H]2O", "IC50": "Not Active"}
{"structure": "COc1c(C)c(O)c2c(c1C)O[C@H](c1ccccc1)CC2=O", "IC50": "Not Active"}

----------
A collection of compounds and their measured IC50
# Test system: A549
# run.description: Cytotoxicity against human A549 cells by MTT assay
# Format: functional, cell-based
# setup.conditions: Homo sapiens, A549; read-out: IC50
Express your answer in µM, writing the number without its unit.

Worked examples follow.
{"structure": "COc1c(C)c(O)c(C=O)c2c1[C@H](OC)C[C@@H](c1ccccc1)O2", "test.system": "A549", "unit.label": "µM", "recorded.result": 104}
{"structure": "COc1cc(O)c(C=O)c2c1[C@H](O)C[C@@H](c1ccccc1)O2", "test.system": "A549", "unit.label": "µM", "recorded.result": 147}

Pending compound:
**Q:** Recall the reported IC50 of "COc1c(C)c(OC)c2c(c1C=O)O[C@H](c1ccccc1)C[C@H]2O" when tested on A549.
**A:** 137

Data origin: ChEMBL document CHEMBL3132766
